# System: human Nav1.7 (full length) (human) (UniProt Q15858)
# Assay Notes: cell-based or functional assay
Measured Endpoint: % inhibition of inward current following P02 voltage protocol, 10 µg/ml (%)

Binder: 9A6 (antibody, V domains shown) VH: EVQLVQPGAELRNPGASVKVSCKASGYTYTSAYIVWVRQAPGEGLEWMGRIDPEDGGTKYAQKFQGRVTFTADTSTNTAYVELSSLRSDDTAVYYCTAGLDYWGKGTLVTVSS VL: ATMLTQSPGSLSVVPGESASISCKASQSLVHSDGMTYLYWLQQKPGQSPQRLIYRVSRRGSGVPDRFTGSGSGTDFTLNISDMKAEDAGVYYCAQDTYYPYSFGSGTSVEIK
Number: 16.9
//
Binder: 9G6 (antibody, human IgG1, V domains shown) VH: EVQLVQPGAELTKPGASVKVSCNTSGYTFTGYYIDWVRQVPGEGLEWMGRIDPEDGDTKYAQKFQGRVTITADTSTTTAYMELSSLRSEDTAVYYCSLGVDYWGQGTQVTVSS VL: ATMLTQSPGSLSVVPGESASISCKTSQSLVHSDGKTYLYWLLQKPGQSPQRLIYQVSNRDSGVPDRFTGSGSGTDFTLKISGVKAEDAGVYYCAQTTYDPVTFGQGTKVELK
Number: 11.8
//
Binder: 9A11 (antibody, human IgG1, V domains shown) VH: EVQLVQPGAEVRRPGAAVKVSCKASGFALISSYIDWVRQAPGQGLEWMGRIDPEDGGTSYAQKFQGRVTVTVDTATSTAYVELSSLRSDDTGVYFCMVGDSGYWGQGTQVTVSS VL: ATMLTQSPGSLSVVPGESASISCKASQSLVHTDGKTYLSWLLQKPGQSPQRLIYQVSTRGSGVPDRVTGSGSGTDFTLKISGVKAEDAGVYYCAQTTYYPPTFGQGTKVELK
Number: 16
//
Binder: 9C3 (antibody, V domains shown, chimeric llama-human, human IgG1 constant domains) VH: EVQLVQPGAELRNPGTSVKVSCKTSGYYFTSSDIQWVRQAPAQGLEWMGRIDPEDGATKYAPKFQGRVTFTADTFTRTAYVELSNLRSDDTAVYYCMTAGGEYWGKGTLVTVSS VL: QPVLNQPSALSVSLGQTARITCQGGDFRNYYNNWYQQKPGQAPVLVIYEDSERPSGIPERFSGSSSGDTVILTVSRVQADDEADYYCQSSDSTDNAVFGGGTHLTVL
Number: 18.3
